Target: T1, HLA-A*02:01 molecule
T1 construct: MHC class I molecule on T2 cells (ATCC); also called product of an HLA-A*02:01 gene; allele A*02:01
Assay: flow cytometry, T2 cells
Readout Label: log Kd

1. LVEEHGATL (synthetic 9-mer derived from EVC2) [peptide of SEQ ID NO: 43]
2. AQAPPTAQL (synthetic 9-mer derived from c-Myb) [peptide of SEQ ID NO: 5]
I would appreciate it if you could say which entry, 1 or 2 , has the lower log Kd value. Give the chosen item's label as your response.
2
(2: -6.02, 1: -4.18)
